Listed here: compounds with reported log10(Ki) for hMMP-13 (Homo sapiens).
Quick note: numbers are log10 of Ki, with µM as the unit.

compound	log10(Ki)
CC[N+]1=C(/C=C/C=C2/N(CCCCCC(=O)NCCCOCCOCCOCCCNC(=O)[C@H](CCC(=O)O)NC(=O)[C@H](CCC(=O)O)NC(=O)[C@H](Cc3cc(-c4ccc(-c5cccc(Cl)c5)cc4)no3)CP(=O)(O)c3ccc(Br)cc3)c3ccc(S(=O)(=O)[O-])cc3C2(C)C)C(C)(C)c2cc(S(=O)(=O)O)ccc21	-0.87

log10(Ki) for CC[N+]1=C(/C=C/C=C/C=C2/N(CCCCCC(=O)NCCCOCCOCCOCCCNC(=O)[C@H](CCC(=O)O)NC(=O)[C@H](CCC(=O)O)NC(=O)[C@H](Cc3cc(-c4ccc(-c5cccc(Cl)c5)cc4)no3)CP(=O)(O)c3ccc(Br)cc3)c3ccc4c(S(=O)(=O)[O-])cc(S(=O)(=O)O)cc4c3C2(C)C)C(C)(C)c2c1ccc1c(S(=O)(=O)O)cc(S(=O)(=O)O)cc21 ?
-1.13

log10(Ki) for NC(=O)[C@H](CCC(=O)O)NC(=O)[C@H](CCC(=O)O)NC(=O)[C@H](Cc1cc(-c2ccc(-c3cccc(Cl)c3)cc2)no1)CP(=O)(O)c1ccc(Br)cc1 [RXP470.1, reference compound] ?
-1.96

log10(Ki) for CC1(C)C(/C=C/C2=C(Oc3ccc(CCC(=O)NCCCOCCOCCOCCCNC(=O)[C@H](CCC(=O)[O-])NC(=O)[C@H](CCC(=O)O)NC(=O)[C@H](Cc4cc(-c5ccc(-c6cccc(Cl)c6)cc5)no4)CP(=O)(O)c4ccc(Br)cc4)cc3)C(=C/C=C3/N(CCC[N+](C)(C)C)c4ccc(S(=O)(=O)[O-])cc4C3(C)C)/CCC2)=[N+](CCC[N+](C)(C)C)c2ccc(S(=O)(=O)[O-])cc21 ?
-0.91

log10(Ki) for CC1(C)C(=CC=C2CCCC(C=CC3=[N+](CCC[N+](C)(C)C)c4ccc(S(=O)(=O)[O-])cc4C3(C)C)=C2Oc2ccc(CCC(=O)NCCCOCCOCCOCCCNC(=O)C(CCC(=O)[O-])NC(=O)C(CCC(=O)O)NC(=O)C(Cc3cc(-c4cccc(Oc5ccccc5)c4)no3)CP(=O)(O)c3ccc(Br)cc3)cc2)N(CCC[N+](C)(C)C)c2ccc(S(=O)(=O)[O-])cc21 (centres unmarked) ?
0.89

FYI, the data here is from paper PMC5137160.
